Tested on: LM2 and MDA-MB-231 breast cancer cell lines
assay.method.text: PAICS 2D cell proliferation assay
Assay type: cell-based
condition.info: Homo sapiens; 72 hours incubation; cell line (LM2 or MDA-MB-231) not given
test.readout: EC50

# annotated cases, reported EC50 shown
- molecule: "CCN(CC)CCCOc1ncc(-c2ccc(Cl)c(NC(=O)c3coc(N)n3)c2)s1 [Example 98]"
  test.readout: "EC50"
  observed.result: "< 100 nM"
- molecule: "CSc1ccc(-c2nc(CN3CCNCC3)cs2)cc1NC(=O)c1coc(N)n1 [Example 100]"
  test.readout: "EC50"
  observed.result: "< 100 nM"

Alright, here's another molecule for you.
Quick one: EC50 for CNCCCn1cc(-c2ccc(Cl)c(NC(=O)c3coc(N)n3)c2)cn1 [Example 49] ?
< 100 nM

----------
Sequence of the target: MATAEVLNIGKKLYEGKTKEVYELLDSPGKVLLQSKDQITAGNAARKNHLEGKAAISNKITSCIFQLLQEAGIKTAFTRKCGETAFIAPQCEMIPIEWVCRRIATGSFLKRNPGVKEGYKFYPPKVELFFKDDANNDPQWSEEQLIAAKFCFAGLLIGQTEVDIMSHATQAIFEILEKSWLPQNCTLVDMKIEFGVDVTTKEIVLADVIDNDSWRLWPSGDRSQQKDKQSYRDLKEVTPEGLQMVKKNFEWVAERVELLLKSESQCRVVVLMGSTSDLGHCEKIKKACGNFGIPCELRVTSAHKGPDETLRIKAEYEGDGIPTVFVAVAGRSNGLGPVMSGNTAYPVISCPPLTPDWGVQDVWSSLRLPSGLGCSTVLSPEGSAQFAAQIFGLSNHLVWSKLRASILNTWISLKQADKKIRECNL
Below, each of the molecules is paired with its reported IC50 value.

- molecule: "CN(C)CCCn1cc(-c2ccc(Cl)c(NC(=O)c3coc(N)n3)c2)cn1"
  IC50: "0.025 to 0.1 µM"

Quick one: IC50 for CNC1CCCN(Cc2ncc(-c3ccc(Cl)c(NC(=O)c4coc(N)n4)c3)s2)C1 (stereo not drawn) ?
< 0.01 µM

Next entry: CNC1CCC(n2cc(-c3ccc(Cl)c(NC(=O)c4coc(N)n4)c3)cn2)CC1 (mixture of isomers)
< 0.01 µM

Next entry: `CN1CCN(Cc2ccc(-c3ccc(Cl)c(NC(=O)c4coc(N)n4)c3)cn2)CC1`
0.025 to 0.1 µM

Next entry: `Nc1nc(C(=O)Nc2cc(-c3cnc(CN4CCNCC4)s3)ccc2Cl)co1`
0.01 to 0.025 µM

Next entry: `CNCCn1cc(-c2ccc(Cl)c(NC(=O)c3coc(N)n3)c2)cn1`
0.01 to 0.025 µM

----------
System: LM2 and MDA-MB-231 breast cancer cell lines
assay.method.text: PAICS 2D cell proliferation assay
Format: cell-based
condition.info: Homo sapiens; 72 hours incubation; cell line (LM2 or MDA-MB-231) not given
test.readout: EC50

- compound: "CN(C)CCOc1ncc(-c2ccc(Cl)c(NC(=O)c3coc(N)n3)c2)cn1"
  observed.result: "0.25 to 0.5 µM"
- compound: "CN(C)C1CCN(C(=O)Cn2cc(-c3ccc(Cl)c(NC(=O)c4coc(N)n4)c3)cn2)CC1"
  observed.result: "0.25 to 0.5 µM"
- compound: "Nc1nc(C(=O)Nc2cc(-c3cnn(C4CCN(CCO)CC4)c3)ccc2Cl)co1"
  observed.result: "0.1 to 0.25 µM"
- compound: "CC1CN(C(=O)Cn2cc(-c3ccc(Cl)c(NC(=O)c4coc(N)n4)c3)cn2)CCN1 (centres unmarked)"
  observed.result: "0.25 to 0.5 µM"
- compound: "CN(C)CCNC(=O)Cn1cc(-c2ccc(Cl)c(NC(=O)c3coc(N)n3)c2)cn1"
  observed.result: "0.25 to 0.5 µM"
- compound: "Nc1nc(C(=O)Nc2cc(-c3cnn(C4CCNCC4)c3)ccc2Cl)co1"
  observed.result: "0.25 to 0.5 µM"
- compound: "Nc1nc(C(=O)Nc2cc(-c3ccc(CN4CCNCC4)cc3)ccc2Cl)co1"
  observed.result: "0.25 to 0.5 µM"
- compound: "CN1CC(n2cc(-c3ccc(Cl)c(NC(=O)c4coc(N)n4)c3)cn2)C1"
  observed.result: "0.1 to 0.25 µM"
- compound: "Cc1nn(C2CCNCC2)cc1-c1ccc(Cl)c(NC(=O)c2coc(N)n2)c1"
  observed.result: "0.1 to 0.25 µM"
- compound: "CNCCn1cc(-c2ccc(Cl)c(NC(=O)c3coc(N)n3)c2)cn1"
  observed.result: "0.1 to 0.25 µM"

Quick one: EC50 for `CN1CCC(NC(=O)Cn2cc(-c3ccc(Cl)c(NC(=O)c4coc(N)n4)c3)cn2)CC1` ?
0.25 to 0.5 µM

Next entry: `CN(C)CCOc1ccc(-c2ccc(Cl)c(NC(=O)c3coc(N)n3)c2)cc1`
0.1 to 0.25 µM

Next entry: `Nc1nc(C(=O)Nc2cc(-c3ccc(CN4CCNCC4)nc3)ccc2Cl)co1`
0.25 to 0.5 µM

Next entry: CNC1CCCN(Cc2csc(-c3ccc(Cl)c(NC(=O)c4coc(N)n4)c3)n2)C1 (centres unmarked)
< 0.1 µM

----------
Test system: LM2 and MDA-MB-231 breast cancer cell lines
assay.method.text: PAICS 2D cell proliferation assay
Type: cell-based
condition.info: Homo sapiens; 72 hours incubation; cell line (LM2 or MDA-MB-231) not given
pEC50: −log10 of the molar value.
Below, each of the compounds is paired with its reported pEC50 value.

# annotated cases, reported pEC50 shown
- compound: "CN1CCC(n2cc(-c3ccc(Cl)c(NC(=O)c4coc(N)n4)c3)cn2)CC1"
  pEC50: "6.60 to 7.00"
- compound: "CN1CCN(Cc2ccc(-c3ccc(Cl)c(NC(=O)c4coc(N)n4)c3)cn2)CC1"
  pEC50: "6.30 to 6.60"
- compound: "CN(C)CCCn1cc(-c2ccc(Cl)c(NC(=O)c3coc(N)n3)c2)cn1"
  pEC50: "6.60 to 7.00"
- compound: "Nc1nc(C(=O)Nc2cc(-c3ccc(N4CCNCC4)cc3)ccc2Cl)co1"
  pEC50: "6.30 to 6.60"

Quick one: pEC50 for `CN(C)CCCC(=O)N1CCC(n2cc(-c3ccc(Cl)c(NC(=O)c4coc(N)n4)c3)cn2)CC1` ?
6.30 to 6.60

Next entry: `CN(C)CCC(=O)N1CCC(n2cc(-c3ccc(Cl)c(NC(=O)c4coc(N)n4)c3)cn2)CC1`
6.30 to 6.60

----------
System: LM2 and MDA-MB-231 breast cancer cell lines
assay.method.text: PAICS 2D cell proliferation assay
Type: cell-based
condition.info: Homo sapiens; 72 hours incubation; cell line (LM2 or MDA-MB-231) not given
test.readout: EC50

# annotated cases, reported EC50 shown
- molecule: "Nc1nc(C(=O)Nc2cc(-c3cnc(CN4CCNCC4)s3)ccc2Cl)co1"
  assayed.target: "LM2 and MDA-MB-231 breast cancer cell lines"
  observed.result: "100 to 250 nM"
- molecule: "CN(C)CC(=O)N1CCC(n2cc(-c3ccc(Cl)c(NC(=O)c4coc(N)n4)c3)cn2)CC1"
  assayed.target: "LM2 and MDA-MB-231 breast cancer cell lines"
  observed.result: "100 to 250 nM"
- molecule: "CNCCCOc1ccc(-c2ccc(Cl)c(NC(=O)c3coc(N)n3)c2)cn1"
  assayed.target: "LM2 and MDA-MB-231 breast cancer cell lines"
  observed.result: "100 to 250 nM"

Kindly state the measured EC50 obtained for `CN1CCN(c2ccc(-c3ccc(Cl)c(NC(=O)c4coc(N)n4)c3)cn2)CC1` with LM2 and MDA-MB-231 breast cancer cell lines.
100 to 250 nM

----------
Test system: LM2 and MDA-MB-231 breast cancer cell lines
assay.method.text: PAICS 2D cell proliferation assay
Assay type: cell-based
condition.info: Homo sapiens; 72 hours incubation; cell line (LM2 or MDA-MB-231) not given
pEC50: −log10 of the molar value.
Below, each of the compounds is paired with its reported pEC50 value.

# annotated cases, reported pEC50 shown
- compound: "CN1CCN(CCn2cc(-c3ccc(Cl)c(NC(=O)c4coc(N)n4)c3)cn2)CC1 [Example 57]"
  pEC50: "6.30 to 6.60"
- compound: "CN(C)C1CCN(Cc2csc(-c3ccc(Cl)c(NC(=O)c4coc(N)n4)c3)n2)CC1 [Example 97]"
  pEC50: "6.60 to 7.00"

Quick one: pEC50 for CNCC1CCN(Cc2ncc(-c3ccc(Cl)c(NC(=O)c4coc(N)n4)c3)s2)CC1 [Example 94] ?
> 7.00

Next entry: CN(C)CCC(=O)N1CC(Cn2cc(-c3ccc(Cl)c(NC(=O)c4coc(N)n4)c3)cn2)C1 [Example 65]
6.30 to 6.60

Next entry: Nc1nc(C(=O)Nc2cc(-c3cnn(C4CCNC4)c3)ccc2Cl)co1 (centres unmarked) [Example 41]
6.60 to 7.00
